target: ALR2 (Rattus norvegicus)
IC50 strictly less than 4 µM = y. Otherwise n.

Solved entries (count: 2):
COc1cc(COc2ccccc2C2(C)CN(CC(=O)O)C(=O)O2)cc(OC)c1OC (stereo not shown) ... y
COc1cccc(COc2ccccc2C2(C)CN(CC(=O)O)C(=O)O2)c1 (stereo not shown) ... n

**Q:** Dear reviewer, please state whether CC1(C)CC2(CN(CC(=O)O)C(=O)O2)c2ccccc2O1 (stereo not shown) has IC50 strictly beneath 4 µM.
**A:** n

**Q:** Repeat for the following molecule: COc1ccc(C2(C)CC3(CN(CC(=O)O)C(=O)CO3)c3cc(Br)ccc3O2)cc1 (stereo not shown)
**A:** n

**Q:** // same read-out, input: CC1(C)CC2(CN(CC(=O)O)CCO2)c2cc(Br)ccc2O1 (stereo not shown)
**A:** n

**Q:** Check CC1(C)CC2(CN(CC(=O)O)C(=O)CO2)c2ccccc2O1 (stereo not shown) too.
**A:** y

**Q:** Now try CC1(C)CC2(CN(CC(=O)O)C(=O)O2)c2cc(Br)ccc2O1 (stereo not shown) .
**A:** n
